Kindly state inhibition for each of the entries shown.
- target_under_test: Adenosine receptor A3 (Rattus norvegicus)
- Sequence (whole entry): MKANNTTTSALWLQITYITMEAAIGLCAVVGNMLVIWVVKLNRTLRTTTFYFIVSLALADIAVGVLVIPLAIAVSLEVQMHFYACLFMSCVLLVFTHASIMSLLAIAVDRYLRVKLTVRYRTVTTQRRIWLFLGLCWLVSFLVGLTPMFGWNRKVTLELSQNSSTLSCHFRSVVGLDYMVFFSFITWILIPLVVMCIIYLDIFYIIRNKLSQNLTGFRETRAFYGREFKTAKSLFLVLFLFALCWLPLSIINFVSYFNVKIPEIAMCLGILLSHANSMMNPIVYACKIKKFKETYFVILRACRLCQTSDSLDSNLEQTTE
- test_protocol: Displacement of [125I]AB-MECA from rat adenosine A3 receptor expressed in HEK293 cells at 1 uM by scintillation counting
- Type: cell-based
Your answer should be a plain number; it is taken to be in %.

Query: Value lookup for inhibition; key = O=C(Nc1nc2ccccc2c2cn(-c3ccccc3)nc12)c1ccccn1
Reply: 23

Query: # inhibition lookup, item O=C(Nc1nc2ccccc2c2cn(-c3ccccc3)nc12)c1cccnc1
Reply: 27

Query: Param item = O=C(Nc1nc2ccccc2c2cn(-c3ccccc3)nc12)c1ccco1 ; retrieve measured inhibition.
Reply: 29

Query: Using the record for O=C(Nc1nc2ccccc2c2cn(-c3ccccc3)nc12)c1ccncc1 , report its inhibition.
Reply: 26

Query: Which inhibition value is on record for Cc1ccc(C(=O)Nc2nc3ccccc3c3cn(-c4ccccc4)nc23)o1 ?
Reply: 30

Query: Field request: inhibition | item: O=C(Nc1nc2ccccc2c2cn(-c3ccc(Cl)cc3)nc12)c1ccco1
Reply: 11

Query: Fill in: inhibition of Cc1ccc(C(=O)Nc2nc3ccccc3c3cn(-c4ccccc4)nc23)cc1 is ___
Reply: 7

Query: Which inhibition value is on record for O=C(Nc1nc2ccccc2c2cn(-c3ccc(Cl)cc3)nc12)c1ccncc1 ?
Reply: 21

Query: Fill in the blank: the reported inhibition of Cc1cccc(C(=O)Nc2nc3ccccc3c3cn(-c4ccccc4)nc23)c1 is ____.
Reply: 5

Data provenance is ChEMBL document CHEMBL1152204.
